# testedOn: Protein Mdm4 (Homo sapiens) + E3 ubiquitin-protein ligase Mdm2 (Homo sapiens) (UniProt O15151+Q00987)
# Sequence (O15151 whole entry, looked up): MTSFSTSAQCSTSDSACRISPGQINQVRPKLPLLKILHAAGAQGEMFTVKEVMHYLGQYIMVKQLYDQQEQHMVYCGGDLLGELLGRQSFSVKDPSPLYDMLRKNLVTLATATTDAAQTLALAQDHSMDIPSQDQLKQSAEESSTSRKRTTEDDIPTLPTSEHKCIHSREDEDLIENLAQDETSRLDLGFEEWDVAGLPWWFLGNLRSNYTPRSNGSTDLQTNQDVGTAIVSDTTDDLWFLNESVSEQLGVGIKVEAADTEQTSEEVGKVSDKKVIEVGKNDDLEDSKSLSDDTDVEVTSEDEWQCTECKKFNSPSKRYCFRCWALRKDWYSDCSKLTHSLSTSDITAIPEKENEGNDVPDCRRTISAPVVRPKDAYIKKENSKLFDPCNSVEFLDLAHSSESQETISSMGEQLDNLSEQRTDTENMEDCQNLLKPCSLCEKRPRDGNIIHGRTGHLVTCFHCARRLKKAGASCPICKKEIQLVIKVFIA
# Sequence (Q00987 whole entry, looked up): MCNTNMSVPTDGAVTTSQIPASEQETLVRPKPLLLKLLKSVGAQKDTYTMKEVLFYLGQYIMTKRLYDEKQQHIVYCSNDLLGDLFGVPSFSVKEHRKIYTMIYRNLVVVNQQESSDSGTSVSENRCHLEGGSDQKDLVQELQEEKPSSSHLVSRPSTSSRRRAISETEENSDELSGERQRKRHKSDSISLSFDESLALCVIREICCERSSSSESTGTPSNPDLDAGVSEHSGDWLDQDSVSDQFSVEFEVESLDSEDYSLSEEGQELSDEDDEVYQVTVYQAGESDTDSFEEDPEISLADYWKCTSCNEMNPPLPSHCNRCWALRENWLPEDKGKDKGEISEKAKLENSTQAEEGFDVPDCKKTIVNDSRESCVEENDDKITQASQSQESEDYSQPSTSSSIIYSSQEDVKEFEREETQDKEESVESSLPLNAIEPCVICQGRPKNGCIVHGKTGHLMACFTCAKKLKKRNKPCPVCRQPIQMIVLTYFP
# assaySummary: inhibitors of human Mdm2-MdmX association, primary screen, cell-based, luminescence, split luciferase, SaOS-2, uHTS (AID 485346)
# conditionNotes: SaOS-2 split-luciferase Mdm2/MdmX complementation, at 8 µM, active compounds read high
Hit rate of the full screen: of about 330,000 compounds, about 10,000 (3%) were called active. The entries come from a sample that favours actives as a whole.
Reported inhibition is given for each of the following compounds.

# compound, quantityUnit, inhibition
data = [
    ("CC12CCC(C(=O)N(NC(=O)c3ccccc3O)C1=O)C2(C)C (stereo unspecified)", "%", 61.1),
    ("S=c1[nH]nc2c3c4c(sc3ncn12)CCCC4", "%", 14),
    ("Cc1ccc(S(=O)(=O)N(C)C)cc1NC(=O)/C=C/c1cccs1", "%", 30.7),
    ("CC[C@@H]1CCCCc2ccccc2[C@@H](C(=O)C[C@H](O)CC(C)=O)OC1=O", "%", 33),
    ("COc1ccc(CCn2c(=N)c(C(=O)NCC3CCCO3)cc3c(=O)n4cccc(C)c4nc32)cc1OC (stereo unspecified)", "%", 64.4),
    ("O=C(CCl)Nc1cccc(CP(=O)(c2ccccc2)c2ccccc2)c1", "%", 96.3),
    ("CCc1cccc(NC(=O)COC(=O)c2cc(=O)c3ccccc3o2)c1", "%", 13.3),
    ("CCOC(=O)[C@H]1[C@H]2COc3cc(OC)ccc3[C@@H]2N2C(=O)CN(Cc3ccc(Cl)cc3)C(=O)[C@@]12C", "%", -12),
    ("COc1ccc(CNC(=O)c2cc3c(=O)n4ccccc4nc3n(CC3CCCO3)c2=N)cc1 (stereo unspecified)", "%", 22.4),
    ("O=C(COC(=O)c1cnccn1)Nc1ccc(Cl)cc1C(F)(F)F", "%", -11.4),
    ("Cn1cc(S(=O)(=O)N2CCN(c3ccc(F)cc3)CC2)c(=O)n(C)c1=O", "%", 8.49),
    ("CC(NC(=O)COC(=O)c1ccc2ccccc2n1)c1ccccc1 (stereo unspecified)", "%", -14.1),
    ("O=C(C[C@H]1C[C@H](C(=O)N2CCOCC2)[C@@]2(CCC3CCCC3)c3[nH]c4ccc(Cl)cc4c3CCN2C1=O)NCc1ccco1", "%", 49.9),
    ("Cc1cc(N2CCCC2)ccc1NC(=O)COc1ccc(Cl)cc1", "%", -1.43),
    ("Cc1ccc2nc(-c3ccncc3)cc(C(=O)Nc3ccc(OC(F)F)cc3)c2c1", "%", 37.3),
    ("Cc1ccc2nc(-c3ccncc3)cc(C(=O)Nc3ccc4c(c3)OCCO4)c2c1", "%", 60.7),
]
